- System: E21 (patient-derived glioblastoma stem cells of mesenchymal subtype);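 note: cell Painting imaging in 384-well plates, CellProfiler features reduced to at least 20 principal components, Euclidean distance versus same-plate DMSO vehicle wells (0.1% v/v), median over six images per well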
- protocolDetails: phenotypic distance (Euclidean, principal components) from DMSO controls (arbitrary units); higher = stronger morphological change
- testParameters: 12.34567901 nM; exposure time: 72 h
Recorded measurements of phenotypic distance, one per entry
measurementName: phenotypic distance

{"columns": ["chemicalString", "resultNumber"],
 "data": [
  ["O=C(O)c1ccc(-c2c[nH]c3ncc(-c4ccccc4)cc23)cc1C1CCCC1", 0.914],
  ["Cc1cc(C)c(CN2CCc3c(Cl)cc(-c4c(C)noc4C)c(Cl)c3C2=O)c(=O)[nH]1", 0.663],
  ["Cc1[nH]nc(C(F)(F)F)c1Cc1sc2c(c1C(=O)N1C[C@](C)(O)CO1)c(=O)n(C)c(=O)n2C(C)C", 0.473],
  ["C/C=C(\\C)C(=O)N[C@@H](c1ccccc1)[C@@H](O)C(=O)O[C@H]1C[C@@]2(O)[C@@H](OC(=O)c3ccccc3)[C@@H]3[C@]4(OC(C)=O)CO[C@@H]4C[C@H](O)[C@@]3(C)C(=O)[C@H](OC(C)=O)C(=C1C)C2(C)C", 5.05]
]}
